Cited source for all entries: paper PMC11432330

Recorded measurements of n (stoichiometry), one per entry
# assaySystem: HsrA (Helicobacter pylori)
# Sequence (O25684 entry or part of it): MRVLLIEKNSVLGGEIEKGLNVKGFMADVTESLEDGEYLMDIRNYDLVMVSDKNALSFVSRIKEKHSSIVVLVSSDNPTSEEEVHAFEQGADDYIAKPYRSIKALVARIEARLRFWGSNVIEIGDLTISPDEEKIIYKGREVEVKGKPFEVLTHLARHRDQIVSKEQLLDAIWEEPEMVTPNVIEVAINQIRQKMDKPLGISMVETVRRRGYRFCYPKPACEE
# testMethodNotes: Isothermal titration calorimetry (ITC) with HsrA
# Assay type: binding
# conditionParameters: ITC, 25 °C, pH 8
Note: the reply should be a number with no unit written.

Sample records with n (stoichiometry):
molecule	measurementType	measuredNumber
OC1(C(F)(F)F)CC(c2ccc3c(c2)Nc2ccccc2S3)=NN1 (stereo not drawn)	n (stoichiometry)	0.9
NC(=NOC(=O)Nc1ccc(Cl)cc1)c1csc([N+](=O)[O-])c1	n (stoichiometry)	1.0
N#C/C(=C\C=C\c1ccccc1)c1nc2ccccc2[nH]1	n (stoichiometry)	1.0
CSc1cccc(NC(=S)NCCNc2c([N+](=O)[O-])cc(C(F)(F)F)cc2[N+](=O)[O-])c1	n (stoichiometry)	0.9
CSc1cccc(Nc2nc(C(C)(C)C)cs2)c1	n (stoichiometry)	1.1

Now, please, on to the next molecule.
For the record N#Cc1cnn(-c2ccc(C(F)(F)F)cc2[N+](=O)[O-])c1N , what value of n (stoichiometry) is listed for HsrA (Helicobacter pylori)?
1.0
